- System: PC-3
- ASSAY TEXT: NCI tumour cell line growth inhibition, 48 h
Active and inactive are the calls of the source. No stated cut-off is given here; in the data, active = GI50 up to about 1.1 µM and inactive = higher.
ATTRIBUTE MEASURED: GI50

INSERT INTO assay_data (compound, attribute_measured, result) VALUES
  ('O=c1c2cc(Cl)ccc2[nH]c2cc(O)cc(O)c12', 'GI50', '> 10 µM (inactive)'),
  ('Cc1c(O)ccc2c(O)c(NC(=O)c3ccc4c(c3)CCC(C)(C)O4)c(=O)oc12', 'GI50', '> 100 µM (inactive)'),
  ('CCN(CC)CCCNC(=O)c1cc(-c2nccn2C)nc2ccccc12', 'GI50', '> 100 µM (inactive)'),
  ('Cc1cc(N(CCC#N)CCC#N)ccc1C(/N=N/c1ccccc1)=N\NC(=O)c1cc(Cl)ccc1O', 'GI50', '23.5 µM (inactive)'),
  ('N[C@@H](CCC(=O)NCP(=O)(O)O)C(=O)O', 'GI50', '> 100 µM (inactive)'),
  ('CC(=O)C(I(OS(=O)(=O)c1ccc(C)cc1)c1ccccc1)=P(c1ccccc1)(c1ccccc1)c1ccccc1', 'GI50', '26.5 µM (inactive)'),
  ('COc1ccc(C(=O)c2[nH]c(Nc3cc(C)ccn3)c(C(=S)Nc3ccccc3)c2N)cc1', 'GI50', '21.2 µM (inactive)'),
  ('CCc1c2c(cc3c1CC1(C3)Cc3cc4c(c(C(=O)OC)c3C1)CCCC4)CCCC2 (stereo not given)', 'GI50', '> 100 µM (inactive)'),
  ('CCCCCCCCCC1(N=[N+]=[N-])C(=O)c2ccccc2N(C)C1=O (stereo not given)', 'GI50', '19.4 µM (inactive)'),
  ('O=C1NC(=S)NC(=O)C1=C/C=C/c1ccc([N+](=O)[O-])cc1', 'GI50', '16.9 µM (inactive)');

====

- System: K562
- ASSAY TEXT: NCI tumour cell line growth inhibition, 48 h
Active and inactive are the calls of the source. Rule as the data show it: active = GI50 up to about 1.1 µM and inactive = higher.
Outcome codes: t (active), f (inactive)

INSERT INTO assay_data (compound, label_value) VALUES
  ('CC1(C)OC(CCC#N)CN1C(=O)OCc1ccccc1 (stereo unspecified)', 'f'),
  ('CCCCCCC1CCC2CCCC(C)N12 (stereo unspecified)', 'f'),
  ('COc1cc2c(/C=C3/C(=O)Nc4cc(C)c(O)cc43)c(Cl)[nH]c2cc1C', 't'),
  ('CCN(CC)C(=S)Oc1cc2oc(=O)cc(C)c2cc1Cl', 'f'),
  ('COc1ccc(C(C)c2cc3c(cc2O)OCO3)cc1 (stereo unspecified)', 'f'),
  ('CC(C)(C)C1=CC(CCC(=O)Nc2ccccc2[N+](=O)[O-])=NC(S)N1 (stereo unspecified)', 'f'),
  ('N#Cc1ccc(/N=C(/NCC(=O)O)Nc2ccc3ccccc3c2)cc1', 'f'),
  ('CC(c1ccc2c(c1)CCC1C2CC2OC23CC=CC(=O)[C@]13C)C1C[C@]2(C)O[C@]2(C)[C@H](O)O1 (stereo partly specified)', 'f'),
  ('Cc1cc(N(CCC#N)CCC#N)ccc1C(/N=N/c1ccccc1)=N\NC(=O)c1cc(Cl)ccc1O', 'f'),
  ('COc1cc([C@H]2c3cc4c(cc3O[C@@]3(O)COC(=O)[C@@H]23)OCO4)cc(OC)c1OC', 'f'),
  ('CCCC(=O)n1[nH]c(=O)n(C(C)(C)C)c1=O', 'f'),
  ('OC[C@H]1O[C@@H]2O[C@@](COCc3ccccc3)([C@H](OCc3ccccc3)[C@H]2O)[C@@H]1OCc1ccccc1', 'f'),
  ('O=c1ccn([C@H]2CSC[C@@H](CO)C2)c(=O)[nH]1', 'f'),
  ('Nc1nc(=O)n([C@@H]2CC[C@H](CO)O2)cc1F', 'f'),
  ('O=C(O)c1cc2ccccc2oc1=O', 'f'),
  ('CN(C)c1cccc2c(S(=O)(=O)NCCN)cccc12', 'f'),
  ('Cc1sc(Nc2ccccc2[N+](=O)[O-])c(C#N)c1C', 'f'),
  ('COC1CC(C)([N+](=O)[O-])C(O)C(C)O1 (stereo unspecified)', 'f'),
  ('C=C(C)C(=O)O[C@H]1C[C@@]23O[C@@H]2CCC(=C[C@H]2OC(=O)C(=C)[C@H]12)COC3O (stereo partly specified)', 'f'),
  ('Cc1ccc(N2C(=O)/C(=C/c3ccc(N(CCC#N)CCC#N)cc3C)N=C2c2cc([N+](=O)[O-])ccc2Cl)cc1', 'f'),
  ('O=[N+]([O-])C(/C=C(\Cl)[N+](=O)[O-])=C1Nc2ccccc2N1', 'f'),
  ('Cc1nc2cccc(F)c2c(=O)n1C1CCCCNC1=O (stereo unspecified)', 'f'),
  ('CCCCCCCCCC1(N=[N+]=[N-])C(=O)c2ccccc2N(C)C1=O (stereo unspecified)', 'f'),
  ('CC(=O)C1=C(C)N(c2ccc(C)cc2)C2(O)C=CC(=O)C3C(=O)N(c4ccccc4)C(=O)C132 (stereo unspecified)', 'f'),
  ('COC1=C(Br)C(O)C2(C=C1Br)CC(C(=O)NCCCCNC(=O)C1=NOC3(C=C(Br)C(OC)=C(Br)C3O)C1)=NO2 (stereo unspecified)', 'f'),
  ('CC(C)c1cc(OCC(O)CO)cc(C(C)C)c1 (stereo unspecified)', 'f'),
  ('CN(C)c1ccc(/C=N/C23CC4CC(CC(C4)C2)C3)cc1', 'f'),
  ('Cc1cc(=O)oc2cc(OCCCOc3ccc4c(C)cc(=O)oc4c3)ccc12', 'f'),
  ('O=c1ccccc2cccc(O)c12', 'f'),
  ('CC(=O)OCC1OC(n2c3c(c(-c4ccc(C)cc4)c(C#N)c2=S)C(=O)CC(C)(C)C3)C(OC(C)=O)C(OC(C)=O)C1OC(C)=O (stereo unspecified)', 'f'),
  ('C[C@@H]1C(=O)CC2C(C)(C)CCC[C@]2(C)[C@@]12CC[C@]1(C=COC1)O2 (stereo partly specified)', 'f'),
  ('N/C(CSCCSC/C(N)=N/O)=N\O', 'f'),
  ('COC(=O)c1cc(OC)c(OC)c(OC)c1-c1cc2c(cc1C=O)OCO2', 'f'),
  ('O=CNNC(=O)Nc1ccc(Cl)cc1', 'f'),
  ('COC(=O)c1ccc(Cc2cc(Cc3ccc(C(=O)OC)cc3)cc(Cc3ccc(C(=O)OC)cc3)c2)cc1', 'f'),
  ('c1ccc(C2CC(N3CCOCC3)=Nc3ccccc3N2)cc1 (stereo unspecified)', 'f'),
  ('O=c1c(O)c(-c2ccccc2)n(O)c2ccc(Cl)cc12', 'f'),
  ('O=C1CCC[C@@H]2NC[C@@H](c3ccc4c(c3)OCO4)[C@H]12', 'f'),
  ('Cc1cccc(/C=C2\CCCc3ccccc3C2=O)c1', 'f'),
  ('Cc1cn(C2OC(CO[Si](C)(C)C(C)(C)C)C(N(C)O[Si](C)(C)C(C)(C)C)C2[Se]c2ccccc2)c(=O)[nH]c1=O (stereo unspecified)', 'f'),
  ('Brc1ccc2c3c1[C@H]1O[C@H]1c1cccc(c1-3)[C@@H]1O[C@H]21', 'f');

====

- Test system: RXF 631
- ASSAY TEXT: NCI tumour cell line growth inhibition, 48 h
The source made the active and inactive calls. No stated cut-off is given here; in the data, active = GI50 up to about 1.1 µM and inactive = higher.
Outcomes: T for active, F for inactive

INSERT INTO results (molecule, target_or_test_system, label_value) VALUES
  ('COC(=O)C1=C(C=O)C2C=CC1C2 (centres undefined)', 'RXF 631', 'F'),
  ('CCc1c(OC(C)=O)c2c(NC3OC(COC(C)=O)C(OC(C)=O)C(OC(C)=O)C3OC(C)=O)nc(SC)nc2oc1=O (centres undefined)', 'RXF 631', 'F'),
  ('CCOC(=O)C(=O)Nc1c(N(CC)CC)n2ccccc2nc1=O', 'RXF 631', 'F'),
  ('S=C1CNC(=S)CN1', 'RXF 631', 'F'),
  ('CC(C)NCC(O)COC(=O)c1cccs1 (centres undefined)', 'RXF 631', 'F'),
  ('CC(C)(C)C#C[P+](c1ccccc1)(c1ccccc1)c1ccccc1', 'RXF 631', 'T'),
  ('Cc1ccccc1-n1c(=S)[nH]c2c(sc(=O)n2-c2ccccc2C)c1=O', 'RXF 631', 'F'),
  ('CN1C2(c3ccccc3)c3c(-c4ccccc4)sc(-c4ccccc4)c3C1(c1ccccc1)C1C(=O)N(c3ccccc3)C(=O)C12 (centres undefined)', 'RXF 631', 'F'),
  ('Cc1cc2c(c(C(N)=O)c1C)-c1cccc(Cl)c1C2=O', 'RXF 631', 'F');

====

- Tested on: SW-620
- ASSAY TEXT: NCI tumour cell line growth inhibition, 48 h
The source made the active and inactive calls. No stated cut-off is given here; in the data, active = GI50 up to about 1.1 µM and inactive = higher.
ATTRIBUTE MEASURED: GI50

INSERT INTO measurements (compound, attribute_measured, result) VALUES
  ('CC[C@@H]1C[C@@H]2CN3CCc4c([nH]c5ccc(OC)cc45)C(COC(=O)c4ccc(OC)c(OC)c4)(C2)C13', 'GI50', '14.6 µM (inactive)'),
  ('CC1C2C=CC1C(c1c3ccc(=O)c(O)c-3oc3c(O)c(O)ccc13)C2C(=O)O (stereo not given)', 'GI50', '34.3 µM (inactive)'),
  ('COC(=O)C1(Cc2cccc(Cl)c2)CCCCCCN1C(=O)c1ccccc1 (stereo not given)', 'GI50', '18.2 µM (inactive)'),
  ('O=C(NNS(=O)(=O)c1ccccc1)c1csc(NC(=S)NC2CCCCC2)n1', 'GI50', '25 µM (inactive)'),
  ('CC(C)(C)C1=CC(CCC(=O)Nc2ccccc2[N+](=O)[O-])=NC(S)N1 (stereo not given)', 'GI50', '> 100 µM (inactive)');
